# Test system: A498 renal
# Protocol summary: NCI-60 one-dose screen, 48 h (100 = growth as untreated, 0 = no growth, -100 = all killed)
# Test parameters: 10 µM unless noted
About 83,000 compounds went through this panel and 20% of them were active in at least one assay; those are over-represented in the sample as a whole.
Please go through the items and note down their growth.
Please state the figure in %; there is no need to write the unit.

Return growth (reported value) for this compound: CCC(O)C(C)(C)C (stereo unspecified)
96.3

Return growth (reported value) for this compound: O=C1C(=O)c2ccc(Br)cc2-c2cc(Br)ccc21
115

Return growth (reported value) for this compound: O=C1/C(=C/c2ccc([N+](=O)[O-])s2)Oc2ccc(Br)cc21
-32.8

Return growth (reported value) for this compound: O=C(CCc1nnc2sc(-c3ccc(Cl)cc3Cl)nn12)c1nc2ccccc2[nH]1
-74.9

Return growth (reported value) for this compound: CCC1=C(c2ccc(OC)cc2)C(C)Oc2cc(OC(C)=O)ccc21 (stereo unspecified)
90.7

Return growth (reported value) for this compound: CC(C)(C)c1cc(O)c(O)c(C(C)(C)C)c1
60.6

Return growth (reported value) for this compound: COc1cc(-c2cc(C(=O)Nc3nc4ccccc4s3)nc3cc(-c4ccccc4)nn23)cc(OC)c1OC
127

Return growth (reported value) for this compound: C=CCOc1ccc2c(c1)CC[C@@H]1[C@@H]2CC[C@@]2(C)[C@H]1CC[C@]2(C)O
90.5

Return growth (reported value) for this compound: Oc1ccccc1/C=N\Nc1ccccc1
82.5

Return growth (reported value) for this compound: CC/C(=C\c1ccc(N(C)C)cc1)c1nc2ccccc2c(=O)[nH]1
118

Return growth (reported value) for this compound: CCN1C[C@@H](C)n2c(c(O)c3c(=O)n(Cc4ccc(F)c(Cl)c4)nc(C(=O)NC)c32)C1=O
-7.58

* * *

# System: HOP-62 NSCLC
# Protocol summary: NCI-60 one-dose screen, 48 h (100 = growth as untreated, 0 = no growth, -100 = all killed)
# Test parameters: 10 µM unless noted
Compounds without any hit were thinned out: in the full panel of roughly 83,000, 20% have a hit.
Property name: growth (%)
Please state the figure in %; there is no need to write the unit.

Return growth (reported value) for this compound: COc1ccc(/C=C/C(=O)Nc2cccnc2Nc2ccc(F)cc2)cc1
117

Return growth (reported value) for this compound: Oc1ccc(-c2nn(-c3ccccc3)cc2-c2nc3ccccc3s2)cc1
104

Return growth (reported value) for this compound: Cc1cc(C(C)(C)C)cc(C)c1CC1=NCCN1
109

Return growth (reported value) for this compound: COC(=O)[C@]1(CCSC)N[C@H](c2cn(-c3ccccc3)nc2C)[C@@H]2C(=O)N(c3ccc(C)cc3)C(=O)[C@@H]21
99.5

Return growth (reported value) for this compound: Oc1ccc(Cc2ccc(O)c(C3CC(c4ccc(Cl)cc4)=NN3)c2)cc1C1CC(c2ccc(Cl)cc2)=NN1 (stereo not drawn)
31.6

Return growth (reported value) for this compound: O=C(CCc1nnc(SCc2ccccc2)s1)c1nc2ccccc2[nH]1
105

Return growth (reported value) for this compound: CCOC(=O)C1=NN(c2ccc(Cl)cc2)C2C3N(c4ccc(Cl)cc4)N=C(C(=O)OCC)N3c3ccccc3N12 (stereo not drawn)
114

Return growth (reported value) for this compound: CCCCOc1ccc(C(C)(C)c2ccc(OCCCC)cc2)cc1
102

Return growth (reported value) for this compound: O=c1ccn(C2CCCO2)c(=O)[nH]1 (stereo not drawn)
107

Return growth (reported value) for this compound: COC(=O)[C@]12CC[C@@H](C)[C@H](C)[C@@H]1C1=CC[C@@H]3[C@@]4(C)C[C@@H](OC(=O)c5ccco5)[C@H](O)[C@@](C)(CO)[C@@H]4[C@H](O)C[C@@]3(C)[C@]1(C)CC2
-88.3

Return growth (reported value) for this compound: COc1ccc2c(c1)C(=O)c1c-2c(OCCN(C)C)nc2cc(OC)ccc12
14.9

Return growth (reported value) for this compound: c1ccc2c(c1)[nH]c1c2cc[n+]2cc3c(cc12)CCCC3
18.8

Return growth (reported value) for this compound: O=C1c2nsnc2C(=O)c2c(F)c(F)c(F)c(F)c21
-86

Return growth (reported value) for this compound: CO[C@H]1CC(O[C@@H]2/C(C)=C/C[C@@H]3C[C@@H](C[C@]4(CC[C@H](C)[C@@H](C5CCCCC5)O4)O3)OC(=O)[C@@H]3C=C(C)/C(=N/O)[C@H]4OC/C(=C\C=C\[C@@H]2C)[C@]43O)O[C@@H](C)C1O (stereo partly drawn)
-88.8

Return growth (reported value) for this compound: CC(CCC(=O)O)(NC(=O)c1ccc([N+](=O)[O-])cc1)C(=O)O (stereo not drawn)
92.8

Return growth (reported value) for this compound: c1ccc(-c2nn[nH]n2)c(-c2ccc(CN3CCN(c4nsc5ccccc45)CC3)cc2)c1
110

Return growth (reported value) for this compound: Cc1c(C(N)=O)sc2nc(SCC(=O)Nc3ccc(Cl)cc3)n(-c3ccccc3)c(=O)c12
109

Return growth (reported value) for this compound: CCOc1nc(-c2ccccc2)cc2c(O)c(C(=O)n3nc(C)cc3C)[nH]c(=O)c12
105
